RESULT_TYPE: melting point

[ask] Bench note: what melting point did CCCCCC(=O)OCC show?
[reply] -67 °C

[ask] Bench note: what melting point did COc1ccc(-c2ccc(OC)cc2)cc1 show?
[reply] 175 °C

[ask] Bench note: what melting point did CCCC(O)/C=C/C=C/C=C/C#CC#CCCCO (centres undefined) show?
[reply] 54 °C

[ask] Bench note: what melting point did Cc1n[nH]c(=S)[nH]c1=O show?
[reply] 218 °C

Could you report melting point for every entry in the following list?
1. N#Cc1nccnc1C#N
2. COc1ccc2c(=O)c3ccccc3oc2c1CN1CCCCC1
3. CCOC(=O)C(=O)Nc1ccccc1
4. CCCCCCCCCCCCC1=C(OC(C)=O)C(=O)c2ccccc2C1=O
5. O=C1c2cccc([N+](=O)[O-])c2C(=O)c2cccc([N+](=O)[O-])c21
6. c1c[nH]cn1

[reply]
["132 °C", "160 °C", "65.5 °C", "59.6 °C", "385 °C", "90.5 °C"]

Could you report melting point for every entry in the following list?
1. Cc1c(O)cccc1O
2. Ic1cccs1
3. Cc1c(NC(C)C)c(=O)n(-c2ccccc2)n1C

[reply]
1: 120 °C; 2: -40 °C; 3: 80 °C

Could you report melting point for every entry in the following list?
1. C=C1C[C@@H]1C[C@H](N)C(=O)O
2. O=c1[nH]c(=O)n([C@H]2C[C@H](O)[C@@H](CO)O2)cc1C(F)(F)F
3. CCCCCCCC/C=C\CCCCCCCC(=O)OCC(O)CO (centres undefined)
4. O=C(Br)c1ccccc1
5. C=C(C)C(C)C

[reply]
["282 °C", "188 °C", "35 °C", "-24 °C", "-157 °C"]

Could you report melting point for every entry in the following list?
1. ClC(Cl)(Cl)c1ccc(C(Cl)(Cl)Cl)cc1
2. COc1ccc([N+](=O)[O-])cc1N
3. C=CCC1(C(C)CCC)C(=O)NC(=S)NC1=O (centres undefined)
4. O=C1C=C(N2CC2)C(=O)C(N2CC2)=C1N1CC1
5. CN(C)[C@@H]1C(O)=C(C(N)=O)C(=O)[C@@]2(O)C(O)=C3C(=O)c4c(O)cccc4[C@@](C)(O)[C@H]3C[C@@H]12.Cl
6. O=C(Cl)c1ccccc1O

[reply]
1. 109 °C
2. 118 °C
3. 132 °C
4. 163 °C
5. 222 °C
6. 19 °C

---

RESULT_TYPE: log10 vapour pressure (mmHg)

[ask] Bench note: what log10 vapour pressure (mmHg) did CCCOC(=O)c1ccccc1C(=O)OCCC show?
[reply] -3.88

[ask] Bench note: what log10 vapour pressure (mmHg) did FCC(F)(F)OC(F)F show?
[reply] 2.57

[ask] Bench note: what log10 vapour pressure (mmHg) did CNC(=O)Oc1ccccc1C1OCCO1 show?
[reply] -6.52

[ask] Bench note: what log10 vapour pressure (mmHg) did CCCCCC#N show?
[reply] 0.455

[ask] Bench note: what log10 vapour pressure (mmHg) did COP(=O)(NC(C)=O)SC (centres undefined) show?
[reply] -5.77

Could you report log10 vapour pressure (mmHg) for every entry in the following list?
1. CCCCCCCCCCCCCCCC(=O)OC
2. CCCCOC(=O)N(C)SN(C)C(=O)Oc1cccc2c1OC(C)(C)C2
3. CCCCCCCCO
4. Clc1c(Cl)c(Cl)c2c(Cl)c(Cl)c(Cl)c(Cl)c2c1Cl
5. O=C(Cc1ccccc1)Cc1ccccc1
6. O=C(Cc1ccccc1)c1ccccc1

[reply]
[-4.33, -7.53, -1.1, -7.96, -3.13, -3.74]

Could you report log10 vapour pressure (mmHg) for every entry in the following list?
1. C1=CCC=C1
2. C=CCSSSC
3. N#Cc1c[nH]cc1-c1cccc2c1OC(F)(F)O2
4. O=C(O)C(F)(F)F
5. C=CCOC(=O)/C=C\C(=O)OCC=C

[reply]
1: 2.64; 2: -1.3; 3: -8.53; 4: 2.04; 5: -2.17

Could you report log10 vapour pressure (mmHg) for every entry in the following list?
1. FC(F)(F)C(F)(F)C(F)(F)F
2. CC(=O)C(C)C
3. CCOC(=O)CCCOc1ccc(Cl)cc1C
4. CCCC(=O)CC
5. CC(=O)CCC(C)C
6. COC(=O)c1cc(Oc2ccc(C(F)(F)F)cc2Cl)ccc1[N+](=O)[O-]
7. Cc1ccccc1N

[reply]
1. 3.82
2. 1.72
3. -5.84
4. 1.14
5. 0.761
6. -7.12
7. -0.585

Could you report log10 vapour pressure (mmHg) for every entry in the following list?
1. c1ccc2c(c1)-c1cccc3cccc-2c13
2. CCCCCCCCCCC
3. Cc1cc2ccccc2o1

[reply]
1. -5.04
2. -0.385
3. -0.312

---

Note that class boundaries on melting point are lowest: < 50 °C; middle: ≥ 50 °C and < 100 °C; highest: ≥ 100 °C

[ask] For the record SCCCS , report the class its melting point corresponds to.
[reply] lowest

[ask] For the record CCCCCCCCCCCCCCCC=O , report the class its melting point corresponds to.
[reply] lowest

[ask] For the record Clc1ccc2ncccc2c1 , report the class its melting point corresponds to.
[reply] lowest

[ask] For the record O=C1CCCCCCCCCCCN1 , report the class its melting point corresponds to.
[reply] highest

[ask] For the record CCCCCCc1ccc2ccccc2c1 , report the class its melting point corresponds to.
[reply] lowest

[ask] For the record CC(C)=CC(=O)O , report the class its melting point corresponds to.
[reply] middle

[ask] For the record CC(C)CCC[C@@H](C)[C@H]1CC[C@H]2[C@@H]3CC=C4C=CCC[C@]4(C)[C@H]3CC[C@]12C , report the class its melting point corresponds to.
[reply] middle

[ask] For the record Cc1nn(-c2cc(NS(C)(=O)=O)c(Cl)cc2Cl)c(=O)n1C(F)F , report the class its melting point corresponds to.
[reply] highest

[ask] For the record C=CCc1cc(Cl)ccc1O , report the class its melting point corresponds to.
[reply] lowest

[ask] For the record CC(C)C(C)N (configuration not stated) , report the class its melting point corresponds to.
[reply] lowest

---
[ask] For the record CC(C)CC(=O)C1C(=O)c2ccccc2C1=O , report the class its melting point corresponds to.
[reply] middle

[ask] For the record c1ccc2cc(Nc3ccc(Nc4ccc5ccccc5c4)cc3)ccc2c1 , report the class its melting point corresponds to.
[reply] highest

[ask] For the record COc1ccc2c(c1)N(CCCN(C)C)c1ccccc1S2 , report the class its melting point corresponds to.
[reply] lowest

[ask] For the record COC(=O)c1cccc2ccccc12 , report the class its melting point corresponds to.
[reply] middle

---

Binary call on melting point with cut-off 90 °C: strictly below means yes, and equality or higher means no.

Examples from the recorded data:
[ask] Lab log: compare recorded melting point with 90 °C; is it strictly lower for CC1=C2[C@H]3OC(=O)[C@@H](C)[C@@H]3[C@@H](O)C[C@@]2(C)C=CC1=O ?
[reply] no

[ask] Lab log: compare recorded melting point with 90 °C; is it strictly lower for OCc1ccc(O)cc1 ?
[reply] no

[ask] Lab log: compare recorded melting point with 90 °C; is it strictly lower for Clc1ccccc1Cl ?
[reply] yes

---
[ask] Lab log: compare recorded melting point with 90 °C; is it strictly lower for CCSC#N ?
[reply] yes

[ask] Lab log: compare recorded melting point with 90 °C; is it strictly lower for CNC(=O)Oc1ccccc1C(C)C ?
[reply] no

[ask] Lab log: compare recorded melting point with 90 °C; is it strictly lower for O=C(Cl)C(=O)Cl ?
[reply] yes

[ask] Lab log: compare recorded melting point with 90 °C; is it strictly lower for CC(C)(C(N)=O)n1nnc2ccccc21 ?
[reply] no

[ask] Lab log: compare recorded melting point with 90 °C; is it strictly lower for C=CCCCCCCCCCCCCCC ?
[reply] yes

[ask] Lab log: compare recorded melting point with 90 °C; is it strictly lower for ICCCCI ?
[reply] yes

[ask] Lab log: compare recorded melting point with 90 °C; is it strictly lower for COCCOc1ccccc1S(=O)(=O)N=C(O)N=c1nc(OC)[nH]c(OC)n1 ?
[reply] no

[ask] Lab log: compare recorded melting point with 90 °C; is it strictly lower for BrC(c1ccccc1)(c1ccccc1)c1ccccc1 ?
[reply] no

[ask] Lab log: compare recorded melting point with 90 °C; is it strictly lower for CCCCCCOC(=O)CC ?
[reply] yes

[ask] Lab log: compare recorded melting point with 90 °C; is it strictly lower for CC(C)Oc1cccc(NC(=O)c2ccccc2C(F)(F)F)c1 ?
[reply] no

[ask] Lab log: compare recorded melting point with 90 °C; is it strictly lower for Cc1cc(C=O)ccc1O ?
[reply] no

---

RESULT_TYPE: boiling point (°C)
Numbers only, in °C.

Could you report boiling point for every entry in the following list?
1. CCCC[C@@H](O)CCC
2. CCCCCOC
3. FCC(F)(F)OC(F)F
4. O/N=C\c1ccccc1
5. COc1ccccc1Oc1ccccc1OC
6. CCC(Cl)CCl (stereo not given)

[reply]
1. 175
2. 99
3. 43
4. 200
5. 330
6. 124
